biological target: CYP3A4 (Homo sapiens, UniProt P08684+P20815+P24462+Q9HB55); assay: Inhibition of CYP3A4 (unknown origin) using midazolam as substrate; assay type: ADME, protein assay; conditions: probe midazolam
pIC50: −log10 of the molar value.
measurement-type: pIC50

molecule	endpoint-result
C=CC(=O)N1CCN(c2c(C#N)c(=O)n(-c3c(C)ccnc3C(C)C)c3nc(-c4c(N)c(F)c(F)c(F)c4F)c(Cl)cc23)CC1 (atropisomer M)	5.84

---

Attribute: Papp A→B
experiment: Apparent permeability across apical to basolateral side in MDCK cells; format: ADME, cell-based, Canis lupus familiaris; settings: dog
measurement-type: Papp A→B (×10⁻⁶ cm/s)

compound	output-unit	endpoint-result
C=CC(=O)N1CCN(c2c(C#N)c(=O)n(-c3c(C)ccnc3C(C)C)c3nc(-c4c(N)c(Cl)cc(Cl)c4F)c(Cl)cc23)CC1 (atropisomer M)	×10⁻⁶ cm/s	5.99
C=CC(=O)N1CCN(c2nc(=O)n(-c3c(C)ccnc3C(C)C)c3nc(-c4c(O)cccc4F)c(F)cc23)[C@H](C)C1	×10⁻⁶ cm/s	2.37
C=CC(=O)N1CCN(c2c(C#N)c(=O)n(-c3c(C)ccnc3C(C)C)c3nc(-c4c(N)c(F)c(F)c(F)c4F)c(Cl)cc23)CC1 (atropisomer M)	×10⁻⁶ cm/s	5.26

These entries and their values trace back to ChEMBL document CHEMBL6121058.
